// data source = paper PMC12064818

target: P. pyralis FLuc (Photinus pyralis, UniProt P08659); assay: FLuc enzymatic luminescence assay, P. pyralis FLuc; format: biochemical; conditions: FLuc enzymatic assay
Sequence (P08659 whole entry): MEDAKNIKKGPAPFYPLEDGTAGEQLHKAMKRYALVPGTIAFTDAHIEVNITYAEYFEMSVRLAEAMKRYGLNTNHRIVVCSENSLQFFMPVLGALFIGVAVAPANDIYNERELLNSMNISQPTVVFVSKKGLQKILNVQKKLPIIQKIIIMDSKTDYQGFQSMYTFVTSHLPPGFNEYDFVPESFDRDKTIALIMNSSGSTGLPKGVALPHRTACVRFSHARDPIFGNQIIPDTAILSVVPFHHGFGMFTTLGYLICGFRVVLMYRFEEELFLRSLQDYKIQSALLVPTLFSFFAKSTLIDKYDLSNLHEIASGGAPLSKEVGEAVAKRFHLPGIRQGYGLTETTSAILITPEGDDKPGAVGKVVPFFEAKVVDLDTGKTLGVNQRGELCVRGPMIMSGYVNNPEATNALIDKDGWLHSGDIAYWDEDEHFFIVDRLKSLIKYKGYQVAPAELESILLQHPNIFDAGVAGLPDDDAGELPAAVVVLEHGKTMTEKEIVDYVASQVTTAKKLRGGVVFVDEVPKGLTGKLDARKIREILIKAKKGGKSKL
measurement kind: pIC50 or pSDR50 FLuc E

> print(dat)
                                    compound        measurement.kind  value
 1  O=C(NCc1cccs1)C1CCN(C(=O)c2ncn3c2COC(c2ccccc2)C3)CC1 (stereo not shown)  pIC50 or pSDR50 FLuc E   5.51
 2  O=C(NC1CCCCC1)C1CCN(C(=O)c2ncn3c2COC(c2ccc(F)cc2)C3)CC1 (stereo not shown)  pIC50 or pSDR50 FLuc E   4.96
 3  O=C(NCCCc1ccccc1)C1CCN(C(=O)c2ncn3c2COC(c2ccccc2)C3)CC1 (stereo not shown)  pIC50 or pSDR50 FLuc E   5.36
 4  O=C(NC1CCCCCCC1)C1CCN(C(=O)c2ncn3c2COC(c2ccccc2)C3)CC1 (stereo not shown)  pIC50 or pSDR50 FLuc E   5.16
 5  O=C(NCC1CC1)C1CCN(C(=O)c2ncn3c2COC(c2ccccc2)C3)CC1 (stereo not shown)  pIC50 or pSDR50 FLuc E   5.11
 6  Cc1ccc(CNC(=O)C2CCN(C(=O)c3ncn4c3COC(c3ccccc3)C4)CC2)cc1 (stereo not shown)  pIC50 or pSDR50 FLuc E   5.01
 7  O=C(NCCc1cccs1)C1CCN(C(=O)c2ncn3c2COC(c2ccccc2)C3)CC1 (stereo not shown)  pIC50 or pSDR50 FLuc E   5.26
 8  O=C(NCc1ccc(F)cc1)C1CCN(C(=O)c2ncn3c2COC(c2ccccc2)C3)CC1 (stereo not shown)  pIC50 or pSDR50 FLuc E   5.26
 9  Cc1ccccc1CNC(=O)C1CCN(C(=O)c2ncn3c2COC(c2ccccc2)C3)CC1 (stereo not shown)  pIC50 or pSDR50 FLuc E   5.26
10  O=C(NCCCc1ccccc1)C1CCN(C(=O)c2ncn3c2COC(c2ccc(F)cc2)C3)CC1 (stereo not shown)  pIC50 or pSDR50 FLuc E   4.96
